All figures here come from patent US11306092B2.

Below: a set of entries, each annotated with reported log10 IC50.
# Target or test system: human TLR7 (Homo sapiens, UniProt Q9NYK1)
# Sequence (Q9NYK1 27-1049): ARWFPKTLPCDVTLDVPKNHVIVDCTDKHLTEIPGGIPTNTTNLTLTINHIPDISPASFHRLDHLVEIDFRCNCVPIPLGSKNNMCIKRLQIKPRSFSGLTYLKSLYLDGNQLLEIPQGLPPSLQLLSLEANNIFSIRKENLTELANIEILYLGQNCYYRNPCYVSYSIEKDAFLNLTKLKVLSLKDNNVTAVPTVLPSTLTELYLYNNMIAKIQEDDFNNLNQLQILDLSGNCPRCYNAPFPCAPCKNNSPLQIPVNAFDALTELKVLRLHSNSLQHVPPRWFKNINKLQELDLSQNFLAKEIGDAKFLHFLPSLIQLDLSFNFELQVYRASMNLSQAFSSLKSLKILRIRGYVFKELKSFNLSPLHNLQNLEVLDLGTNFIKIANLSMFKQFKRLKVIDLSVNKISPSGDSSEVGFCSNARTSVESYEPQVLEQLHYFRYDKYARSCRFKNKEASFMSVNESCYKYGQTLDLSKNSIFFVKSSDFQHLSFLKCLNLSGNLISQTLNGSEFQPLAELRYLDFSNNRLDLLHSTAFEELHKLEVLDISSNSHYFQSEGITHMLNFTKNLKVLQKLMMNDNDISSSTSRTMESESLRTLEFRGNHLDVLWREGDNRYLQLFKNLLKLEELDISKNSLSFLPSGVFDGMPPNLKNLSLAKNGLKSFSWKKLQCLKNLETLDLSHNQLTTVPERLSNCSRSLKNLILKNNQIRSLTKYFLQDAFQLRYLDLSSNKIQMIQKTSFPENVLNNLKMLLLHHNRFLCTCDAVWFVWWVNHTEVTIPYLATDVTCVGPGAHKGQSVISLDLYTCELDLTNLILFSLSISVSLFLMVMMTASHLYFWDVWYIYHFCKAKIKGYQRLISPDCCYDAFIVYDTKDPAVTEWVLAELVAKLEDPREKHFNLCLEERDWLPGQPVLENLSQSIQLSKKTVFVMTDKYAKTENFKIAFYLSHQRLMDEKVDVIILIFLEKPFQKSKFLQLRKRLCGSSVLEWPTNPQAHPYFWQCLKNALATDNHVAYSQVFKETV
# Test summary: TLR7 inhibition reporter assay (HEK-Blue SEAP reporter)
# Condition notes: HEK-Blue cells overexpressing human TLR7; gardiquimod 7.5 μM; 22 hour incubation
# Source text: TLR7/8/9 Inhibition Reporter Assays HEK-Blue™-cells (Invivogen) overexpressing human TLR7, TLR8 or TLR9 receptors were used for screening inhibitors of these receptors using an inducible SEAP (secreted embryonic alkaline phosphatase) reporter gene under the control of the IFN-β minimal promoter fused to five NF-κB and AP-1-binding sites. […]
Readout type: log10 IC50 (log10 of the value in nM)

• COc1ccc(-c2[nH]c3ccc(N4CCC(C5c6ccccc6CCN5C)CC4)cc3c2C(C)C)cc1OC (stereo not drawn) [Example 119] = 3.15
• COc1ccc(-c2[nH]c3ccc(N4CCCCC4c4ccncc4)cc3c2C(C)C)cc1OC (stereo not drawn) [Example 113] = 3.08
• COc1ccc(-c2[nH]c3ccc(NC4CCC(N5CCN(C(C)=O)CC5)CC4)cc3c2C(C)C)cc1OC (single isomer, unassigned) [Example 45] = 2.54
• COc1ccc(-c2[nH]c3ccc(N4CCC(C5CCN(Cc6ccsc6)CC5)CC4)cc3c2C(C)C)cc1OC [Example 98] = 2.26
• CCc1c(-c2ccc(OC)c(OC)c2)[nH]c2ccc(N3CCN(C4CCN(CC(C)C)CC4)CC3)cc12 [Example 177] = 2.22
• CCc1c(-c2ccc(OC)c(OC)c2)[nH]c2cc(C)c(N3CCC4(CC3)CCN(C(C)C)CC4)cc12 [Example 186] = 3.08
• COc1ccc(-c2[nH]c3ccc(NC4CCC(N5CCN(Cc6ccc(C)cc6)CC5)CC4)cc3c2C(C)C)cc1OC (stereo not drawn) [Example 66] = 2.84
• COc1ccc(-c2[nH]c3ccc(NC4CCC(N5CCN(C6CCCC6)CC5)CC4)cc3c2C(C)C)cc1OC (stereo not drawn) [Example 58] = 2.55
• CCc1c(-c2ccc(OC)c(OC)c2)[nH]c2ccc(N3CCCN(C4CCN(C)CC4)CC3)cc12 [Example 179] = 2.92
• COc1ccc(-c2[nH]c3ccc(N4CCC(N5CCNCC5)CC4)cc3c2C(C)C)cc1OC [Example 73] = 1.80
• CCc1c(-c2ccc(OC)c(OC)c2)[nH]c2ccc(N3CCN(C4CCN(CC)CC4)CC3)cc12 [Example 163] = 1.83
• COc1ccc(-c2[nH]c3ccc(NC4CCC(N5CCN(CCN6CCCC6)CC5)CC4)cc3c2C(C)C)cc1OC (stereo not drawn) [Example 64] = 2.55
• COc1ccc(-c2[nH]c3ccc(NC4CCC(N5CCN(C)CC5)CC4)cc3c2C(C)C)cc1OC (stereo not drawn) [Example 34] = 2.45
• COc1ccc(-c2[nH]c3ccc(N4CCN(C5CC(C)(C)NC(C)(C)C5)CC4)cc3c2C)cc1OC [Example 171] = 3.95
• COc1ccc(-c2[nH]c3ccc(N4CCCC5CN(Cc6ccccc6)CC54)cc3c2C(C)C)cc1OC (stereo not drawn) [Example 118] = 3.05

###

# Target or test system: human TLR8 (Homo sapiens)
# Sequence (Q9NR97 27-1041): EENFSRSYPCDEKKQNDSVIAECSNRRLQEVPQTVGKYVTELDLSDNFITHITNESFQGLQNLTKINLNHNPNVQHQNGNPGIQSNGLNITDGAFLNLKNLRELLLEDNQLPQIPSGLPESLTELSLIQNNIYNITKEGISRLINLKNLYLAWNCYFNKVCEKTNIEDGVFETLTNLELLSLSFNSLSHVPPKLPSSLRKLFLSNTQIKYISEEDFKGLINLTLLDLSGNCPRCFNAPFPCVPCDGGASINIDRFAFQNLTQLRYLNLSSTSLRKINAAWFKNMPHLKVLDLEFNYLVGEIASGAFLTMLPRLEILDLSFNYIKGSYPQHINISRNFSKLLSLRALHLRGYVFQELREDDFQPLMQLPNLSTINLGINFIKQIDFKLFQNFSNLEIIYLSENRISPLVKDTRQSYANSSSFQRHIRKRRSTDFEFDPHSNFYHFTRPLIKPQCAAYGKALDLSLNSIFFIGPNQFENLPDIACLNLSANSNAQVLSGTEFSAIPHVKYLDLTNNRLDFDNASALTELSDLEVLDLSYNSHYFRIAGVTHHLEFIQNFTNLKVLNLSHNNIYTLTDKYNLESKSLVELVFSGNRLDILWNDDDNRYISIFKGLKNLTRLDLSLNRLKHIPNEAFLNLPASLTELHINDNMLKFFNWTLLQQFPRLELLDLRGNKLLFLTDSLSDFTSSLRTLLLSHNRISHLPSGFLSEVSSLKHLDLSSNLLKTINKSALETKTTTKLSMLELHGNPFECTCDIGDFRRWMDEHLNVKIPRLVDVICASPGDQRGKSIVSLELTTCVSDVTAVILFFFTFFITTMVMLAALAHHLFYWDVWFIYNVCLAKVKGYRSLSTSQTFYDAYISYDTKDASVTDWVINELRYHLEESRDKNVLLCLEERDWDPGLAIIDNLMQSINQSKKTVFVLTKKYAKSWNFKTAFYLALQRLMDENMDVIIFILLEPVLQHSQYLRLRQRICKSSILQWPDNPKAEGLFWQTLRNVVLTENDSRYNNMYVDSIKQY
# Test summary: TLR8 inhibition reporter assay (HEK-Blue SEAP reporter)
# Condition notes: HEK-Blue cells overexpressing human TLR8; R848 15.9 μM; 22 hour incubation
Readout type: IC50 (nM)

• COc1ccc(-c2[nH]c3ccc(NC(=O)[C@@H](N)c4ccccc4)cc3c2C(C)C)cc1OC = 101
• CCc1c(-c2ccnc(OC)c2)[nH]c2ccc(N3CCN(C4CCN(C(C)C)CC4)CC3)cc12 = 11
• COc1ccc(-c2[nH]c3ccc(NC(=O)[C@H](N)CC(N)=O)cc3c2C(C)C)cc1OC = 97
• CCc1c(-c2ccnc(OC)c2)[nH]c2ccc(N3CCN(C4CCN(C)CC4)CC3)cc12 = 10
• CCc1c(-c2ccnc3[nH]ncc23)[nH]c2ccc(N3CCN(C4CCN(C(C)C)CC4)CC3)cc12 = 6010
• COc1ccc(-c2[nH]c3ccc(NC4CCC(N5CCN(c6ccncc6)CC5)CC4)cc3c2C(C)C)cc1OC (stereo not shown) [Example 59] = 106
• CCN1CCN(C2CCN(c3ccc4[nH]c(-c5ccc(OC)c(OC)c5)c(C(C)C)c4c3)CC2)CC1 = 14
